tested on: 874868-142-R-J2-PDC complex spheroids, growth % test/control; assay: Anticancer human tumor 874868-142-R-J2-PDC patient-derived head and neck squamous carcinoma cell line growth inhibition [CLK]; conditions: curve of first compound; second compound 10 µM
Measured IC50, listed per entry.

Compound: C=CC(=O)N1CCN(c2nc(=O)n(-c3c(C)ccnc3C(C)C)c3nc(-c4c(O)cccc4F)c(F)cc23)C(C)C1 (stereo not drawn) + CN1CCN(c2cc(C(=O)Nc3cc4cc(-c5cnn(C)c5)ccc4cn3)ccn2)CC1
Tested On: 874868-142-R-J2-PDC complex spheroids, growth % test/control
Observed Property: IC50
Observed Value: < 31.6 nM

Compound: C#Cc1c(F)ccc2cc(O)cc(-c3ncc4c(N5CC6CCC(C5)N6)nc(OCC56CCCN5CC(F)C6)nc4c3F)c12 (stereo not drawn) + CN1CCN(c2cc(C(=O)Nc3cc4cc(-c5cnn(C)c5)ccc4cn3)ccn2)CC1
Tested On: 874868-142-R-J2-PDC complex spheroids, growth % test/control
Observed Property: IC50
Observed Value: < 31.6 nM

Now turn to the next compound.
Q: Give recorded IC50. Cn1ncnc1[C@H]1c2n[nH]c(=O)c3cc(F)cc(c23)N[C@@H]1c1ccc(F)cc1 + CN1CCN(c2cc(C(=O)Nc3cc4cc(-c5cnn(C)c5)ccc4cn3)ccn2)CC1
Result: < 0.316 nM

###

test system: 874868-142-R-J2-PDC complex spheroids, growth % test/control; experiment: Anticancer human tumor 874868-142-R-J2-PDC cell line growth inhibition [CLK]; conditions: compound 0.316 µM; active means viability on the fitted dose curve at most 10% of control; inactive means the rest;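 further: spheroids exposed to the compounds for 7 days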
API: response.call in active, inactive

Worked cases, answers included:
Compound: CNC(=O)c1ccc(Nc2nc(OC3CCCC3)c3c(-c4ccc5nc(C)oc5c4)c[nH]c3n2)c(OC)c1
Tested On: 874868-142-R-J2-PDC complex spheroids, growth % test/control
Label Class: inactive
//
Compound: CC(Nc1ccc2c(c1)OCCn1cc(N3C(=O)OCC3C(F)F)nc1-2)C(N)=O (centres undefined)
Tested On: 874868-142-R-J2-PDC complex spheroids, growth % test/control
Label Class: inactive
//
Compound: COc1c(OCCCN2CCOCC2)ccc2c3n(c(=NC(=O)c4cnc(N)nc4)nc12)CCN3
Tested On: 874868-142-R-J2-PDC complex spheroids, growth % test/control
Label Class: active

Q: Tell me the assay call for `CN1CCN(c2cc(C(=O)Nc3cc4cc(-c5cnn(C)c5)ccc4cn3)ccn2)CC1` please.
Result: inactive

###

Measured viability, T/C, listed per entry.
system: 874868-142-R-J2-PDC complex spheroids, growth % test/control; experiment: Anticancer human tumor 874868-142-R-J2-PDC cell line growth inhibition [CLK]; details: second compound 1 µM; first compound 0.316 µM; stronger effect = lower value;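 further: spheroids exposed to the compounds for 7 days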;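 on viability, T/C: 100% = DMSO vehicle control viability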
Enter your answer as a number in %; do not include the unit.

Compound: O=c1[nH]cc(F)c(=O)[nH]1 + CNC(=O)c1ccc(Nc2nc(OC3CCCC3)c3c(-c4ccc5nc(C)oc5c4)c[nH]c3n2)c(OC)c1
Observed Property: viability, T/C
Observed Value: 40.1
//
Compound: COC1C=CCC(C)C(C)S(=O)(=O)NC(=O)c2ccc3c(c2)N(CC2CCC21)CC1(CCCc2cc(Cl)ccc21)CO3 (stereo not given) + CNC(=O)c1ccc(Nc2nc(OC3CCCC3)c3c(-c4ccc5nc(C)oc5c4)c[nH]c3n2)c(OC)c1
Observed Property: viability, T/C
Observed Value: 24.9
//
Compound: CCN1CCN(Cc2ccc(Nc3ncc(F)c(-c4cc(F)c5nc(C)n(C(C)C)c5c4)n3)nc2)CC1 + CN1CCN(c2cc(C(=O)Nc3cc4cc(-c5cnn(C)c5)ccc4cn3)ccn2)CC1
Observed Property: viability, T/C
Observed Value: 0.48
//
Compound: CC1(C)CCC(CN2CCN(c3ccc(C(=O)NS(=O)(=O)c4ccc(NCC5CCOCC5)c([N+](=O)[O-])c4)c(Oc4cnc5[nH]ccc5c4)c3)CC2)=C(c2ccc(Cl)cc2)C1 + CNC(=O)c1ccc(Nc2nc(OC3CCCC3)c3c(-c4ccc5nc(C)oc5c4)c[nH]c3n2)c(OC)c1
Observed Property: viability, T/C
Observed Value: 50.6

Now turn to the next compound.
Q: Give recorded viability, T/C. CC1COCCN1c1cc(C2(S(C)(=N)=O)CC2)nc(-c2ccnc3[nH]ccc23)n1 (stereo not given) + CN1CCN(c2cc(C(=O)Nc3cc4cc(-c5cnn(C)c5)ccc4cn3)ccn2)CC1
Result: 0.49

###

Measured viability, T/C, listed per entry.
Tested on: 874868-142-R-J2-PDC complex spheroids, growth % test/control
Assay: Anticancer human tumor 874868-142-R-J2-PDC cell line growth inhibition [CLK];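 further: spheroids exposed to the compounds for 7 days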;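 on viability, T/C: 100% = DMSO vehicle control viability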
Conditions: second compound 0.0316 µM; first compound 1 µM; stronger effect = lower value
Source text: A high-throughput screen of multi-cell type tumor spheroids was designed to identify active combinations of […] and targeted small molecules. Complex spheroids include a stromal component modeled by human endothelial cells (HUVEC) and fibroblasts modeled by human mesenchymal stem cells (MSCs). […] Compounds. […] If the clinical Cmax for an agent had not been determined, the highest concentration tested was 10 microM. […]
Enter your answer as a number in %; do not include the unit.

Solved entries:
Compound: COc1c(OCCCN2CCOCC2)ccc2c3n(c(=NC(=O)c4cnc(N)nc4)nc12)CCN3 + CN1CCN(c2cc(C(=O)Nc3cc4cc(-c5cnn(C)c5)ccc4cn3)ccn2)CC1
Tested On: 874868-142-R-J2-PDC complex spheroids, growth % test/control
Observed Property: viability, T/C
Reading Unit: %
Observed Value: 3.88

Compound: CCN1CCN(Cc2ccc(Nc3ncc(F)c(-c4cc(F)c5nc(C)n(C(C)C)c5c4)n3)nc2)CC1 + CNC(=O)c1ccc(Nc2nc(OC3CCCC3)c3c(-c4ccc5nc(C)oc5c4)c[nH]c3n2)c(OC)c1
Tested On: 874868-142-R-J2-PDC complex spheroids, growth % test/control
Observed Property: viability, T/C
Reading Unit: %
Observed Value: 113

Compound: COC1C=CCC(C)C(C)S(=O)(=O)NC(=O)c2ccc3c(c2)N(CC2CCC21)CC1(CCCc2cc(Cl)ccc21)CO3 (stereo not given) + CNC(=O)c1ccc(Nc2nc(OC3CCCC3)c3c(-c4ccc5nc(C)oc5c4)c[nH]c3n2)c(OC)c1
Tested On: 874868-142-R-J2-PDC complex spheroids, growth % test/control
Observed Property: viability, T/C
Reading Unit: %
Observed Value: 42.1

Compound: O=c1[nH]cc(F)c(=O)[nH]1 + CN1CCN(c2cc(C(=O)Nc3cc4cc(-c5cnn(C)c5)ccc4cn3)ccn2)CC1
Tested On: 874868-142-R-J2-PDC complex spheroids, growth % test/control
Observed Property: viability, T/C
Reading Unit: %
Observed Value: 70.8

Compound: CCCS(=O)(=O)Nc1ccc(F)c(C(=O)c2c[nH]c3ncc(-c4ccc(Cl)cc4)cc23)c1F + CN1CCN(c2cc(C(=O)Nc3cc4cc(-c5cnn(C)c5)ccc4cn3)ccn2)CC1
Tested On: 874868-142-R-J2-PDC complex spheroids, growth % test/control
Observed Property: viability, T/C
Reading Unit: %
Observed Value: 120

Q: Give recorded viability, T/C. COc1ccc([C@@H](O)c2cc(-c3ncnc4cc(N5CCOCC5)ccc34)c(F)cc2Cl)nn1 + CN1CCN(c2cc(C(=O)Nc3cc4cc(-c5cnn(C)c5)ccc4cn3)ccn2)CC1
Result: 70.4

Q: Give recorded viability, T/C. C=CC(=O)N1CCN(c2nc(=O)n(-c3c(C)ccnc3C(C)C)c3nc(-c4c(O)cccc4F)c(F)cc23)C(C)C1 (stereo not given) + CN1CCN(c2cc(C(=O)Nc3cc4cc(-c5cnn(C)c5)ccc4cn3)ccn2)CC1
Result: 131

Q: Give recorded viability, T/C. CC1(C)CCC(CN2CCN(c3ccc(C(=O)NS(=O)(=O)c4ccc(NCC5CCOCC5)c([N+](=O)[O-])c4)c(Oc4cnc5[nH]ccc5c4)c3)CC2)=C(c2ccc(Cl)cc2)C1 + CNC(=O)c1ccc(Nc2nc(OC3CCCC3)c3c(-c4ccc5nc(C)oc5c4)c[nH]c3n2)c(OC)c1
Result: 92.7

Q: Give recorded viability, T/C. CC(=O)O[C@H]1C(=O)[C@@]2(C)[C@H]([C@H](OC(=O)c3ccccc3)[C@]3(O)C[C@H](OC(=O)[C@H](O)[C@@H](NC(=O)c4ccccc4)c4ccccc4)C(C)=C1C3(C)C)[C@]1(OC(C)=O)CO[C@@H]1C[C@@H]2O + CN1CCN(c2cc(C(=O)Nc3cc4cc(-c5cnn(C)c5)ccc4cn3)ccn2)CC1
Result: 22

Q: Give recorded viability, T/C. CC(CO)NC(=O)c1cc(-c2ccc(Cl)cc2)nn(-c2cnn(C)c2)c1=O (stereo not given) + CNC(=O)c1ccc(Nc2nc(OC3CCCC3)c3c(-c4ccc5nc(C)oc5c4)c[nH]c3n2)c(OC)c1
Result: 120
